- Tested on: Mus musculus
- test: Analgetic activity in sc dosed albino DD mouse by tail pressure stimuli method
- Assay type: functional
Returns: string. Value is T if measured ED50 is below 20 mg/kg, and F if it is greater than or equal to it.

Could you please tell me whether ED50 recorded for CC(O)C(=O)O.CN1CC2Cc3ccc(O)cc3C1C2 (configuration not stated) is less than 20 mg/kg?
F

ED50 under 20 mg/kg? Item: CN1CCCC2Cc3ccc(O)cc3C1C2.Cl.O (configuration not stated)
T

Lab log: compare recorded ED50 with 20 mg/kg; is it strictly lower for Br.C[C@@H]1C2Cc3ccc(O)cc3C1(C)CCN(C)C2 (some centres not stated) ?
T

Is it true that ED50 reported for CN1CCC2Cc3ccc(O)cc3C1C2 (configuration not stated) is less than 20 mg/kg?
T

Please check: ED50 for CC1NCC2Cc3ccc(O)cc3C1C2 (configuration not stated) , strictly under 20 mg/kg or not?
T

Quick check: ED50 of Br.CN1CC2CC1Cc1ccc(O)cc12 (configuration not stated) under 20 mg/kg?
F

Consider Br.CN1CCC2Cc3ccc(O)cc3C(C2)C1 (configuration not stated) . Does its ED50 lie strictly below 20 mg/kg?
F

Data provenance is ChEMBL document CHEMBL3244408.
